Reference source: ChEMBL document CHEMBL1142276

Each entry below carries its recorded pKi.
target: Cannabinoid receptor 2 (Homo sapiens, UniProt P34972); assay: Displacement of [3H]CP-55940 from human recombinant CB2 receptor expressed in HEK cells; format: cell-based, HEK293
Sequence (P34972 whole entry): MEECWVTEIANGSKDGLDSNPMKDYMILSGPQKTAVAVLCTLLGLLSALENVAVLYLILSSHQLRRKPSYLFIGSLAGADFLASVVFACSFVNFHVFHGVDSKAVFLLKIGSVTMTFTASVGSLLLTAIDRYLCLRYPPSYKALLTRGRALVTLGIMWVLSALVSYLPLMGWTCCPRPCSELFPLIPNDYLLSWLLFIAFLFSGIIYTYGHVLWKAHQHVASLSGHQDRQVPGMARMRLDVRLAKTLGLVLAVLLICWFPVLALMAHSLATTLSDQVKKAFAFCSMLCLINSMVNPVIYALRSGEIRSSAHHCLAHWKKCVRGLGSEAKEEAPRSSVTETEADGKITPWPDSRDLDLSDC
// returns pKi (minus log10 of molar concentration), number only

Solved entries (count: 4):
[
  {
    "smiles code": "Cc1c(C(=O)NN2CCCCC2)nn(-c2ccc(Cl)cc2Cl)c1-n1cccc1",
    "pKi": 5.76
  },
  {
    "smiles code": "Cc1c(C(=O)NC2CCCCC2)nn(-c2ccc(Cl)cc2Cl)c1-n1c(C)ccc1C",
    "pKi": 7.06
  },
  {
    "smiles code": "Cc1c(C(=O)NCc2ccc(Cl)c(Cl)c2)nn(-c2ccc(F)cc2F)c1-n1cccc1",
    "pKi": 6.41
  },
  {
    "smiles code": "Cc1c(C(=O)NCc2ccc(Cl)c(Cl)c2)nn(-c2ccc(Cl)c(Cl)c2)c1-n1cccc1",
    "pKi": 6.82
  }
]

Shift focus to the following entry.
QUERY: # query: pKi of entry Cc1c(C(=O)NN2CCCCC2)nn(-c2ccc(Cl)cc2)c1-n1cccc1
RESULT: 5.66
